Values compiled from patent US10239863B2.

target: purified human Factor XIa (Homo sapiens, UniProt P03951); construct: Determinations were made using purified human Factor XIa; purchased Sekisui Diagnostics; test: Factor XIa Assay (hydrolysis of fluorogenic substrate Z-Gly-Pro-Arg-AFC); type: biochemical; conditions: purified human Factor XIa 40 pM; Z-Gly-Pro-Arg-AFC 100 μM; 50 mM HEPES pH 7.4; read-out: Factor XIa Inhibition (IC50 (nM))
Sequence (P03951 388-625 limits assumed): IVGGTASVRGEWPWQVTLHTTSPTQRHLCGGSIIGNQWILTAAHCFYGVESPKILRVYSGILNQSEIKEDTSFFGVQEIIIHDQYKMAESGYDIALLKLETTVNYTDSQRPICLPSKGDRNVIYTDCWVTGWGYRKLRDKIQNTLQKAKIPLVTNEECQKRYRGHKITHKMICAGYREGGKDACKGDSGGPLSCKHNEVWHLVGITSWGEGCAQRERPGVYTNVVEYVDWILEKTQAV
Sequence (P03951 19-387 partner limits assumed): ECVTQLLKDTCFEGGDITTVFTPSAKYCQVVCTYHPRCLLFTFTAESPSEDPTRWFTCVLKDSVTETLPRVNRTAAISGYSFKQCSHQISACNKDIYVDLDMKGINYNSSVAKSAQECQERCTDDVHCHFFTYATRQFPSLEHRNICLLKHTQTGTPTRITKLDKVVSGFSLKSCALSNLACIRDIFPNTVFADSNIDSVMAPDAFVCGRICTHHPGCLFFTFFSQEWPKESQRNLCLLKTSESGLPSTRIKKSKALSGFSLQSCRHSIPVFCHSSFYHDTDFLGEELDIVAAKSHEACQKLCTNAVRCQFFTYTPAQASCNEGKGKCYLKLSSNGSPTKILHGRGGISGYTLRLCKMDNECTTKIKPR
Structures can show the parent of a compound that is named as a salt.
Lab note - cut at 400 nM for IC50: Criterion met if strictly below, Criterion not met if not.

Some solved entries appear below for comparison.
{"columns": ["compound", "cat"],
 "data": [
  ["O=C(O)c1ccc(NC(=O)C2C(c3ccccc3)CC(N3CCNCC3)CN2C(=O)/C=C/c2cc(Cl)ccc2-n2cnnn2)cc1 (stereo not drawn)", "Criterion met"],
  ["COC(=O)Nc1ccc(-c2c[nH]c([C@@H]3[C@H](C4CC4)C[C@H](C4CCN(S(C)(=O)=O)CC4)CN3C(=O)/C=C/c3cc(Cl)ccc3-n3cnnn3)n2)cc1 (single isomer, unassigned)", "Criterion not met"],
  ["NC1CCN([C@@H]2C[C@H](c3ccccc3)[C@H](C(=O)Nc3ccc(C(=O)O)cc3)N(C(=O)/C=C/c3cc(Cl)ccc3-n3cnnn3)C2)CC1", "Criterion met"],
  ["NC1CCN(C2CC(C3CC3)C(C(=O)Nc3ccc(C(=O)O)cc3)N(C(=O)/C=C/c3cc(Cl)ccc3-n3cnnn3)C2)CC1 (stereo not drawn)", "Criterion met"],
  ["C[C@@H]1C[C@H](C2CCNCC2)CN(C(=O)c2ccc(CN)c(C3CC3)c2)[C@@H]1C(=O)Nc1ccc(C(=O)O)cc1", "Criterion not met"],
  ["O=C(Nc1ccc2[nH]ncc2c1)[C@H]1[C@@H](c2ccc(F)cc2)C[C@@H](N2CCNCC2)CN1C(=O)/C=C/c1cc(Cl)ccc1-n1cnnn1", "Criterion not met"],
  ["N#Cc1ccc(-c2cnc(C3C(c4ccc(F)cc4)CC(N4CCC(N)CC4)CN3C(=O)/C=C/c3cc(Cl)ccc3-n3cnnn3)[nH]2)cc1 (stereo not drawn)", "Criterion met"],
  ["O=C(O)c1ccc(NC(=O)[C@H]2[C@@H](c3ccccc3)C[C@@H](OC3CCNCC3)CN2C(=O)/C=C/c2cc(Cl)ccc2-n2cnnn2)cc1", "Criterion met"],
  ["O=C(O)c1ccc(NC(=O)[C@@H]2[C@H](C3CCCCC3)C[C@H](OC3CCNCC3)CN2C(=O)/C=C/c2cc(Cl)ccc2-n2cnnn2)cc1 (racemic)", "Criterion met"],
  ["O=C(O)c1ccc(NC(=O)[C@@H]2[C@H](c3ccccc3)C[C@H](C3CCNCC3)CN2C(=O)/C=C/c2cc(Cl)ccc2-n2cnnn2)cc1 (single isomer, unassigned) [Example 23, trifluoroacetic acid salt]", "Criterion not met"]
]}

Lab note: next compound to report on.
Take the compound `CC(=O)N1CCN([C@H]2C[C@@H](c3ccc(F)cc3)[C@@H](C(=O)Nc3ccc4[nH]ncc4c3)N(C(=O)/C=C/c3cc(Cl)ccc3-n3cnnn3)C2)CC1` and say whether its IC50 is less than 400 nM. Criterion met
